// data source = paper PMC4336329

# measuredOn: human ether-à-go-go-related gene (hERG) potassium channel (human)
# testSummary: primary screen, population patch clamp on CHO cells stably expressing hERG; higher = less effect of the substance;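 also: peak tail current of the secondary pulse compared with the same well before compound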
Out of some 310,000 compounds screened, about 14,000 (4.5%) showed an effect of 50% or more. The effect is printed as a negative number. This is one part of a sample in which strong results are shown more often than they occur.
outcomeMeasure: hERG current change (%, negative = inhibition) at 10uM (%)

| compound | endpointValue |
| --- | --- |
| O=C(Nc1ccccc1F)NC1CCN(Cc2nnnn2Cc2ccc(F)cc2)CC1 | -69.2 |
| Cc1ccc2cc(CN(CCN3CCCC3)C(=O)Nc3ccc(F)cc3)c(=O)[nH]c2c1C | -70.7 |
| C#CCOCCOCCOCCNc1nc(N2CCN(C(=O)CCCCCCCCCCNC(=O)Cn3cc(C[C@@H](C)O)nn3)CC2)nc(N2CCN(C(=O)CCCCCCCCCCNC(=O)[C@H](CCCCN)n3cc(CCCC(=O)O)nn3)CC2)n1 | -1.72 |
| O=[N+]([O-])c1cccc2c(N3CCOCC3)ccnc12 | -17.6 |
| O=C(Nc1ccc2nc3n(c(=O)c2c1)CCCC3)c1cccc(F)c1 | -43.9 |
| Nc1cccc2c1C(=O)N(CCOc1ccccc1F)C2=O | 20.2 |
| COc1cc(OC)cc(C(=O)Nc2ccc3nc4n(c(=O)c3c2)CCCCC4)c1 | -48.7 |
| COc1ccc(CCN(Cc2cc3cccc(C)c3[nH]c2=O)C(=O)NC2CCCCC2)cc1OC | -25 |
| COc1cc(OC)cc(C(=O)Nc2ccc3nc4n(c(=O)c3c2)CCCC4)c1 | 11.2 |
| C#Cc1ccc([C@@H]2C=C(C(=O)NCc3ccccc3)O[C@H](OCc3ccc(CO)cc3)C2)cc1 | 6.15 |
| COCCn1nnnc1CN1CCC(NC(=O)Nc2cccc(OC)c2)CC1 | 8.3 |
| COc1ccc(-c2csc(NC(=O)c3ccc(S(=O)(=O)N4CCc5ccccc5C4)cc3)n2)c(OC)c1 | 23 |
| O=C(c1cc(=O)[nH]c2ccccc12)N1CCN(c2cccc(C(F)(F)F)c2)CC1 | -27.1 |
| COc1ccc(N2C(=O)CSC2c2cccs2)cc1 (stereo not drawn) | -3.37 |
| COc1cccc(NC(=O)NC2CCN(Cc3nnnn3Cc3ccc4c(c3)OCO4)CC2)c1 | -23.3 |
| Cc1cccc2cc(CN(Cc3ccco3)C(=O)NC3CCCCC3)c(=O)[nH]c12 | -38.9 |
| O=[N+]([O-])c1cccc2c(Cl)ccnc12 | -0.808 |
| COc1cccc(C(=O)Nc2ccc3nc4n(c(=O)c3c2)CCCC4)c1 | -62.9 |

###

# measuredOn: human ether-à-go-go-related gene (hERG) potassium channel (human, UniProt Q12809)
# Sequence (Q12809 whole entry, looked up): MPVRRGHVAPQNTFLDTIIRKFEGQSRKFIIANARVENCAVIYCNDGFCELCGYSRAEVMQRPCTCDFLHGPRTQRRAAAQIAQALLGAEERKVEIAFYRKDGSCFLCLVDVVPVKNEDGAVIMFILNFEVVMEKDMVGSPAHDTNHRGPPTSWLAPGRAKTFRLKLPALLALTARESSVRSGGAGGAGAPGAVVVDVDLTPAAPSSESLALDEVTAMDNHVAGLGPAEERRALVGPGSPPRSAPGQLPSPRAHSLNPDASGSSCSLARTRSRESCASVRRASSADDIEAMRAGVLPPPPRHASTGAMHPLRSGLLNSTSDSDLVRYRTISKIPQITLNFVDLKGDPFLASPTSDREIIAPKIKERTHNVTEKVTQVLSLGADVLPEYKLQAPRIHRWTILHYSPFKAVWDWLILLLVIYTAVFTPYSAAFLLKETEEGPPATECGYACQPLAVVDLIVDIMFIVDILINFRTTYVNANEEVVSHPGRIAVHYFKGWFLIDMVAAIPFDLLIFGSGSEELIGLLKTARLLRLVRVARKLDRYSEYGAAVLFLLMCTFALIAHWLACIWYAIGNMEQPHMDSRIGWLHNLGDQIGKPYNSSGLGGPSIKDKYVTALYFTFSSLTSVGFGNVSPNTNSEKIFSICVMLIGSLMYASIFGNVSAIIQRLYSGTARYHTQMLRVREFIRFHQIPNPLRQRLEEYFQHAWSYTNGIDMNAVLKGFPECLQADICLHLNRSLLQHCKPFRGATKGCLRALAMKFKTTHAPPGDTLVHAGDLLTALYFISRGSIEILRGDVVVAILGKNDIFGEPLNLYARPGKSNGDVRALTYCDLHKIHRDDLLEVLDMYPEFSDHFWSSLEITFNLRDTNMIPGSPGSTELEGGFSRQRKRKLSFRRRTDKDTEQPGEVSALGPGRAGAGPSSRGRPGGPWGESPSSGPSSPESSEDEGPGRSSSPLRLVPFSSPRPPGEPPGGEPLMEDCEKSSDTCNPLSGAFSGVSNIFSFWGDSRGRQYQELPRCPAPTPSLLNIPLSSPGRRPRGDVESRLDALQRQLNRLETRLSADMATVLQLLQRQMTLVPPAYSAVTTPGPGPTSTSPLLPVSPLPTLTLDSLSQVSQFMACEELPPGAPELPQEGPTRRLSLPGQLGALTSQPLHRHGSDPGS
# testSummary: primary screen, population patch clamp on CHO cells stably expressing hERG; higher = less effect of the substance
In all, about 310,000 compounds went through this assay and about 14,000 (4.5%) showed an effect of 50% or more. The effect is printed as a negative number. This is one part of a sample in which strong results are shown more often than they occur.
Form field: hERG current change (%, negative = inhibition) at 10uM (one value per entry).
outcomeMeasure: hERG current change (%, negative = inhibition) at 10uM (%)

| compound | endpointValue |
| --- | --- |
| COc1ccc(NC(=O)c2cccc3cccnc23)cc1S(N)(=O)=O | 29.2 |
| CCc1ccccc1NC(=O)Cn1nc(C(F)(F)F)c2c1CCC2 | 7.74 |
| Br.CN1CCc2cc(O)c(O)cc2C(c2ccccc2)C1 (stereo not drawn) | -13.6 |
| O=C(O)c1ccc(NS(=O)(=O)c2cc(Cl)sc2Cl)cc1 | 21.3 |
| O=C(CNC(=O)c1sc2ccccc2c1Cl)Nc1ccccc1F | -6.72 |
| Br.Cc1cccc(C2CN(C)CCc3c2cc(O)c(O)c3Cl)c1 (stereo not drawn) | -51.1 |
| CN1CCC(=O)N([C@H](CSc2ccc(Br)cc2)c2ccccc2)CC1 | -83.7 |
| COc1ccc(OC)c(NS(=O)(=O)c2ccc(NC(=O)c3ccc(NS(C)(=O)=O)cc3)cc2)c1 | 14.2 |
| COc1ccc(-c2[nH]ncc2-c2nc(C)cs2)c(O)c1 | 13.5 |
| O=C(Nc1nnc(SCc2ccc(F)cc2)s1)c1cccnc1Cl | 2.48 |
| CN1CCC(=O)N([C@H](CSc2ccccc2)c2ccccc2)CC1 | -64.9 |
| CN1CCc2cc(Cl)c(O)cc2[C@@H](c2ccccc2)C1.Cl | -56 |
| O=C1CN(C(=O)N[C@@H](Cc2ccccc2)C(=O)N[C@@H](Cc2ccccc2)C(=O)O)c2ccccc2N1 | 3.79 |
| Cc1nnc(Nc2ccc3c(c2)OCO3)c2ccccc12 | -7.51 |
| Br.C=CCN1CCc2c(cc(O)c(O)c2Cl)C(c2ccccc2)C1 (stereo not drawn) | -41 |
| COc1ccc(C(=O)Nc2nc(CC(=O)NCCc3ccccc3OC)cs2)cc1 | -6.94 |
| COC(=O)N1C(=O)[C@](c2ccc(Cl)cc2)(C(C)C)N1C(=O)OC | 7.07 |
| CC(C)(C)OC(=O)N1CCC[C@H]1C(=O)Nc1ccc(Br)cc1 | 13.5 |
| O=C1NC2(CCCCCC2)Cc2ccccc21 | -21.2 |
| Oc1ccc(N=Nc2ccc3c(c2)OCCO3)c(O)c1 | 22.6 |
| Cc1ccccc1C(=O)N1CCN(c2ccc(NC(=O)c3cccs3)cc2)CC1 | 4.97 |

###

Each entry below carries its reported hERG current change (%, negative = inhibition) at 10uM.
# measuredOn: human ether-à-go-go-related gene (hERG) potassium channel (human, UniProt Q12809)
# testSummary: primary screen, population patch clamp on CHO cells stably expressing hERG; higher = less effect of the substance
Hit rate of the full screen: of about 310,000 compounds, about 14,000 (4.5%) showed an effect of 50% or more. Effects have a minus sign here. The entries come from a sample that favours strong results as a whole.
outcomeMeasure: hERG current change (%, negative = inhibition) at 10uM (%)

| molecule | endpointValue |
| --- | --- |
| Cc1ccccc1Nc1nc(N)nc(CSc2ccc(F)cc2)n1 | -50.4 |
| Cc1ccc(SCc2nc(N)nc(Nc3ccccc3C)n2)cc1C | 1.31 |
| COCCN1Cc2cc3cc(C)ccc3nc2SC1=Nc1ccc(OC)cc1 | 7.73 |
| Nc1nc(CSc2ncn[nH]2)nc(Nc2ccc(F)cc2)n1 | 6.74 |
| Nc1nc(CN2CCN(c3ccccn3)CC2)nc(Nc2ccc(Cl)cc2)n1 | -74.8 |
| CCCCNC(=O)c1cc2c(=O)n3cccc(C)c3nc2n(CCN2CCOCC2)c1=N | -86 |
| Nc1nc(CN2CCN(c3ccccn3)CC2)nc(Nc2ccc(F)cc2)n1 | -67.4 |
| S=C(NCc1ccc(Cl)cc1)N1CCN(c2ccccn2)CC1 | -23.9 |
| CCC(C)N=C1Sc2nc3ccc(C)cc3cc2CN1CCOC (stereo not shown) | -79 |
| COCCN=C1Sc2nc3ccc(C)cc3cc2CN1Cc1ccco1 | -61 |

###

# measuredOn: human ether-à-go-go-related gene (hERG) potassium channel (human)
# testSummary: primary screen, population patch clamp on CHO cells stably expressing hERG; higher = less effect of the substance
The campaign covered roughly 310,000 compounds. About 14,000 (4.5%) showed an effect of 50% or more. Effects have a minus sign here. This excerpt belongs to a sample that is enriched for strong results.
outcomeMeasure: hERG current change (%, negative = inhibition) at 10uM (%)

| itemSmiles | endpointValue |
| --- | --- |
| CCOC(=O)c1sc(=S)n(-c2ccc(OC)cc2)c1N | 15.2 |
| O=C(C[n+]1cccc(O)c1)NCc1ccc(Cl)cc1.[Cl-] | 24.2 |
| CN(C)CC/C=C1\c2cc(Cl)ccc2Sc2cc(F)c(F)cc21.Cl | 1.25 |
| CCOc1ccc(-n2c(N)c(C(=O)N3CCN(C)CC3)sc2=S)cc1 | -51 |
| CCOC(=O)c1sc(=S)n(-c2ccc(OC)cc2)c1C | -51.1 |
